SYSTEM_NAME: human β3 adrenergic receptor (Homo sapiens, UniProt P13945)
Construct: expressed in transfected cells; host or cells: Chinese hamster ovary (CHO) cells, stably transfected
Sequence (P13945 whole entry): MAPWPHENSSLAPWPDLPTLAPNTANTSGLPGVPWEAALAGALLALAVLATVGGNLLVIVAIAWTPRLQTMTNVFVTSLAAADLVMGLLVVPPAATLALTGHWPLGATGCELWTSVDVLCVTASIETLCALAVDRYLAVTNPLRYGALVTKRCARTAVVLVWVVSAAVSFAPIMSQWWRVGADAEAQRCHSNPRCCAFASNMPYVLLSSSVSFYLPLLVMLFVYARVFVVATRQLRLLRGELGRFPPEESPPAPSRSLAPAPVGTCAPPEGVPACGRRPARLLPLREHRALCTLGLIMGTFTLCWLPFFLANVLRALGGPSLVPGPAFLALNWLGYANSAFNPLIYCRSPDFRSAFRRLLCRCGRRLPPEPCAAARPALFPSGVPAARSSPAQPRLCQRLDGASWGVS
ASSAY_DETAILS: Beta-3 agonist in vitro functional assay: cAMP production (LANCE TR-FRET) in CHO cells stably transfected with the cloned β3 receptor
Format: cell-based
RECORDED_CONDITIONS: Table 10; Beta-3 agonist in vitro functional assay; read-out: Human β3 agonist functional activity
Description: Chinese hamster ovary (CHO) cells, stably transfected with the cloned β-adrenergic receptor (β1, β2 or β3) are harvested after 3 days of subculturing. Harvesting of cells is done with Enzyme-free Dissociation Media (Specialty Media). Cells are then counted and resuspended in assay buffer (Hank's Balanced salt solution supplemented with 5 mM HEPES, […]) containing a phosphodiesterase inhibitor (IBMX, 0.6 mM). […]
READOUT_LABEL: EC50

{"COMPOUND": "CC(C(=O)N1CCC(CO)CC1)N1CCN(C(=O)c2ccc(C[C@@H]3CC[C@H]([C@H](O)c4ccccc4)N3)cc2)CC1 (stereo partly shown) [Example 490]", "REPORTED_RESULT": "10 to 99.9 nM"}
{"COMPOUND": "CC(C(=O)N1CCC[C@H]1C(N)=O)N1CCN(C(=O)c2ccc(C[C@@H]3CC[C@H]([C@H](O)c4ccccc4)N3)cc2)CC1 (stereo partly shown) [Example 478]", "REPORTED_RESULT": "100 to 999 nM"}
{"COMPOUND": "CCN(CC)C(=O)C(C)N1CCN(C(=O)c2ccc(C[C@@H]3CC[C@H]([C@H](O)c4ccccc4)N3)cc2)CC1 (stereo partly shown) [Example 516]", "REPORTED_RESULT": "100 to 999 nM"}
{"COMPOUND": "CNC(=O)C(C)N1CCN(C(=O)c2ccc(C[C@@H]3CC[C@H]([C@H](O)c4ccccc4)N3)cc2)CC1 (stereo partly shown) [Example 435]", "REPORTED_RESULT": "10 to 99.9 nM"}
{"COMPOUND": "CC(C(=O)N1CCOCC1)N1CCN(C(=O)c2ccc(C[C@@H]3CC[C@H]([C@H](O)c4ccccc4)N3)cc2)CC1 (stereo partly shown) [Example 499]", "REPORTED_RESULT": "100 to 999 nM"}
{"COMPOUND": "CC(C(=O)NCc1ncco1)N1CCN(C(=O)c2ccc(C[C@@H]3CC[C@H]([C@H](O)c4ccccc4)N3)cc2)CC1 (stereo partly shown) [Example 462]", "REPORTED_RESULT": "10 to 99.9 nM"}
{"COMPOUND": "CC(C(=O)NC1CCCC1)N1CCN(C(=O)c2ccc(C[C@@H]3CC[C@H]([C@H](O)c4ccccc4)N3)cc2)CC1 (stereo partly shown) [Example 456]", "REPORTED_RESULT": "10 to 99.9 nM"}
{"COMPOUND": "CC(C(=O)N1CCc2cnccc2C1)N1CCN(C(=O)c2ccc(C[C@@H]3CC[C@H]([C@H](O)c4ccccc4)N3)cc2)CC1 (stereo partly shown) [Example 508]", "REPORTED_RESULT": "10 to 99.9 nM"}
{"COMPOUND": "CC(C(=O)N1CCCCC1C)N1CCN(C(=O)c2ccc(C[C@@H]3CC[C@H]([C@H](O)c4ccccc4)N3)cc2)CC1 (stereo partly shown) [Example 485]", "REPORTED_RESULT": "10 to 99.9 nM"}
{"COMPOUND": "CC(C(=O)N1CCc2ccc(F)cc2C1)N1CCN(C(=O)c2ccc(C[C@@H]3CC[C@H]([C@H](O)c4ccccc4)N3)cc2)CC1 (stereo partly shown) [Example 509]", "REPORTED_RESULT": "1 to 9.9 nM"}
{"COMPOUND": "CC(C(=O)N1CCCC2(CCCCO2)C1)N1CCN(C(=O)c2ccc(C[C@@H]3CC[C@H]([C@H](O)c4ccccc4)N3)cc2)CC1 (stereo partly shown) [Example 498]", "REPORTED_RESULT": "10 to 99.9 nM"}
{"COMPOUND": "CC[C@@H](C)NC(=O)C(C)N1CCN(C(=O)c2ccc(C[C@@H]3CC[C@H]([C@H](O)c4ccccc4)N3)cc2)CC1 (stereo partly shown) [Example 440]", "REPORTED_RESULT": "10 to 99.9 nM"}
{"COMPOUND": "CCCCN(C)C(=O)C(C)N1CCN(C(=O)c2ccc(C[C@@H]3CC[C@H]([C@H](O)c4ccccc4)N3)cc2)CC1 (stereo partly shown) [Example 514]", "REPORTED_RESULT": "10 to 99.9 nM"}
